Biological target: Factor X (FX), P00742
Sequence (P00742 whole entry, looked up): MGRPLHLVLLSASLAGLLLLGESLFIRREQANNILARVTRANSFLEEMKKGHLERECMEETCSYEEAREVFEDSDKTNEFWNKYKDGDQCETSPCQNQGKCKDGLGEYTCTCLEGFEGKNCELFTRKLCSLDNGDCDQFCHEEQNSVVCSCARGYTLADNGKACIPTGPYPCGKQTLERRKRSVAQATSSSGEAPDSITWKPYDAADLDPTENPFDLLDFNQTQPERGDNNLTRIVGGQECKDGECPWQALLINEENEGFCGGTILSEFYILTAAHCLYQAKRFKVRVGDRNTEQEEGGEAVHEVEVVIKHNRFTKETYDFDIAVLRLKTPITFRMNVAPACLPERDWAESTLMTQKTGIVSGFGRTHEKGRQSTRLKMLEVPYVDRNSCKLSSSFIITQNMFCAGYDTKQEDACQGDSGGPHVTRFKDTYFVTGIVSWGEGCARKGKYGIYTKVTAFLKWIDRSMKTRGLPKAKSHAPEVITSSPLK
property.measured: kcat (s⁻¹)
The answer is to be given in s⁻¹; state only the numeric part.

FIXa-K228N/K247N/N249S/R318Y/R338E/T343R/R403E/E410N (protein) chain 1: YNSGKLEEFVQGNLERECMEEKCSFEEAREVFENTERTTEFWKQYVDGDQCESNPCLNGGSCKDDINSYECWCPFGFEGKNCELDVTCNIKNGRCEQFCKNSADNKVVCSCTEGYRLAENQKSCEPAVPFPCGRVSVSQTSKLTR chain 2: VVGGEDAKPGQFPWQVVLNGKVDAFCGGSIVNEKWIVTAAHCVETGVNITVVAGEHNIEETEHTEQNRSVIRIIPHHNYNAAINKYNHDIALLELDEPLVLNSYVTPICIADKEYTNIFLKFGSGYVSGWGRVFHKGYSALVLQYLRVPLVDRATCLESTKFRIYNNMFCAGFHEGGRDSCQGDSGGPHVTEVEGTSFLTGIISWGEECAMKGKYGIYTKVSEYVNWIKNKTKLT | 9.9

Let's switch to this protein now.
IN: Which kcat reading was recorded for the protein FIXa-Y155F/I251S/R338E/T343R/R403E (protein) chain 1: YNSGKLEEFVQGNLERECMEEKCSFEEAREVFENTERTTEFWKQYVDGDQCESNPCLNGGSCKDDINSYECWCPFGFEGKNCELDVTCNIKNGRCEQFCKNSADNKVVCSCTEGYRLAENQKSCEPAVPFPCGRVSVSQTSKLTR chain 2: VVGGEDAKPGQFPWQVVLNGKVDAFCGGSIVNEKWIVTAAHCVETGVKITVVAGEHNIEETEHTEQKRNVSRIIPHHNYNAAINKYNHDIALLELDEPLVLNSYVTPICIADKEYTNIFLKFGSGYVSGWGRVFHKGRSALVLQYLRVPLVDRATCLESTKFRIYNNMFCAGFHEGGRDSCQGDSGGPHVTEVEGTSFLTGIISWGEECAMKGKYGIYTKVSEYVNWIKEKTKLT ?
OUT: 5.9
